- measuredOn: T1, cynomolgous IL12Rβ1 naturally expressed on cells (HSC-F cells, cyno T-cells, cyno blood cells) (cynomolgus monkey, UniProt P42701 24-662 (human entry))
- T1 construct: also called cyno IL12Rβ1
- assayProcedure: flow cytometry, cell binding on cyno T-cells (cyno natural expression)
propertyLabel: pEC50
Schema: pEC50 number; meaning minus log10 of the concentration expressed in molar units.

Known pEC50 results, listed for orientation:
mAb10 (MOR11880 with IgG1 LALA Fc variant) (antibody, V domains shown, Human IgG1 L234A L235A (LALA), expressed in HKB11 cells) VH: QVQLVQSGAEVKKPGASVKVSCKASGYTFTGYYMHWVRQAPGQGLEWMGMIGPQHGEAIYAQKFQGRVTMTRDTSISTAYMELSRLRSDDTAVYYCARESTDSDESPFDYWGQGTLVTVSS VL: SYELTQPLSVSVALGQTARITCSGDNIRSYYVSWYQQKPGQAPVLVIYDDSDRPSGIPERFSGSNSGNTATLTISRAQAGDEADYYCQSYGSHSNFVVFGGGTKLTVLG ... 10.55
mAb4 (MOR11878 with IgG1 LALA Fc variant) (antibody, V domains shown, Human IgG1 L234A L235A (LALA), expressed in HKB11 cells) VH: QVQLVESGGGVVQPGRSLRLSCAASGFTFTSYGMSWVRQAPGKGLEWVAGISYDASDTEYADSVKGRFTISRDNSKNTLYLQMNSLRAEDTAVYYCARSPDYIIDYGFDYWGRGTLVTVSS VL: AIQMTQSPSSLSASVGDRVTITCRASQGISSDLAWYQQKPGKAPKLLIYDASSLQSGVPSRFSGSGSGTDFTLTISSLQPEDFATYYCQQYWWYPFTFGQGTKVEIKR ... 10.39
mAb1 (MOR11873 with IgG1 LALA Fc variant) (antibody, V domains shown, Human IgG1 L234A L235A (LALA), expressed in HKB11 cells) VH: QVQLVESGGGVVQPGRSLRLSCAASGFTFTSYGMSWVRQAPGKGLEWVAGISYSGSDTEYADSVKGRFTISRDNSKNTLYLQMNSLRAEDTAVYYCARSPDYIIDYGFDYWGRGTLVTVSS VL: AIQMTQSPSSLSASVGDRVTITCRASQGISSDLAWYQQKPGKAPKLLIYDASSLQSGVPSRFSGSGSGTDFTLTISSLQPEDFATYYCQQYWIYPFTFGQGTKVEIKR ... 10.26

Next item in the queue.
Query block: Need pEC50, item mAb7 (MOR11879 with IgG1 LALA Fc variant) (antibody, V domains shown, Human IgG1 L234A L235A (LALA), expressed in HKB11 cells) VH: QVQLVQSGAEVKKPGASVKVSCKASGYTFTGYYMHWVRQAPGQGLEWMGMIGPQHGEAIYAQKFQGRVTMTRDTSISTAYMELSRLRSEDTAVYYCARESTDSDESPFDYWGQGTLVTVSS VL: DIELTQPPSVSVSPGQTASITCSGDNIRSYYVSWYQQKPGQAPVLVIYDDSDRPSGIPERFSGSNSGNTATLTISGTQAEDEADYYCQSYGSHSNFVVFGGGTKLTVLG
Result block: 10.44
